molecular target: human Lck enzyme (Homo sapiens); construct: purchased Carna Biosciences, Inc. 08-170; test: Lck enzyme inhibitory activity (time-resolved fluorometry, biotinylated peptide phosphorylation); format: biochemical; conditions: biotinylated peptide phosphorylation, read-out: LCK_IC50
// reported IC50 for each item listed
Express it in nM; write the number only.

querySmiles: Cc1cc(Oc2ccccc2F)cc(F)c1-n1ncc(C(=O)c2cc3cc(OCC(F)F)c(N4CCCS4(=O)=O)cc3[nH]2)c1N
measuredQuantity: IC50
unitsLabel: nM
endpointValue: 7.4

IN: Complete the entry with IC50 for `Cc1cc(Oc2ccccc2F)ccc1-n1ncc(C(=O)c2cc3cc(F)c(NS(=O)(=O)NC4(C)COC4)cc3[nH]2)c1N`
OUT: 8.2

IN: Complete the entry with IC50 for `Cc1cc2cc(C(=O)c3cnn(-c4cnc(Oc5ccccc5Cl)cc4C)c3N)[nH]c2cc1N1CCCS1(=O)=O`
OUT: 4.8

----------
// reported IC50 for each item listed
target: human Lck enzyme (Homo sapiens, UniProt P06239); construct: purchased Carna Biosciences, Inc. 08-170; test: Lck enzyme inhibitory activity (time-resolved fluorometry, biotinylated peptide phosphorylation); type: biochemical; details: read-out: LCK_IC50
Sequence (P06239 whole entry): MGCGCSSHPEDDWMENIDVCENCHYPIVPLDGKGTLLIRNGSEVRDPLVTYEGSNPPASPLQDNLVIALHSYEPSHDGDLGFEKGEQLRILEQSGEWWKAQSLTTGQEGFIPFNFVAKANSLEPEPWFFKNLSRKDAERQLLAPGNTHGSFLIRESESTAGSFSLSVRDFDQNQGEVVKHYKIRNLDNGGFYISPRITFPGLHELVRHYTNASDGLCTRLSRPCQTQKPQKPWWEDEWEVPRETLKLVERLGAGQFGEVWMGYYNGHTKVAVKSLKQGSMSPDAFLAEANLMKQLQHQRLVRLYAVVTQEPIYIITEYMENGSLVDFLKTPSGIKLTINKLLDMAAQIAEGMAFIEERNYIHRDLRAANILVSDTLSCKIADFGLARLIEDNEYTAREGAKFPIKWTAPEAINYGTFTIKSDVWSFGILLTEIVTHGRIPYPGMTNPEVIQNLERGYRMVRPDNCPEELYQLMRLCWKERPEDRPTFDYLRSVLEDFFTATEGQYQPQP
Express it in µM; write the number only.

compound: Nc1c(C(=O)c2cc3cc(F)c(NS(=O)(=O)C4CC4)cc3[nH]2)cnn1-c1c(Cl)cc(Oc2cccc(F)c2F)cc1Cl [Example 5-1-026]
unitsLabel: µM
IC50: 0.39

compound: Cc1cc(-n2ncc(C(=O)c3cc4cc(F)c(NS(C)(=O)=O)cc4[nH]3)c2N)cnc1Oc1cccc(F)c1F [Example 5-1-044]
unitsLabel: µM
IC50: 2.7

compound: Cc1cc(Oc2c(F)cccc2F)ncc1-n1ncc(C(=O)c2cc3cc(OC(F)F)c(N)cc3[nH]2)c1N [Example 5-1-074]
unitsLabel: µM
IC50: 0.0032

IN: Complete the entry with IC50 for Cc1cc2cc(C(=O)c3cnn(-c4cnc(Oc5c(F)cccc5F)cc4C)c3N)[nH]c2cc1N1C(=O)NC2(CCN(Cc3ccccc3)C2)C1=O (stereo not shown) [Example 5-1-363]
OUT: 0.031

----------
target: human Lck enzyme (Homo sapiens); construct: purchased Carna Biosciences, Inc. 08-170; test: Lck enzyme inhibitory activity (time-resolved fluorometry, biotinylated peptide phosphorylation); assay type: biochemical; details: biotinylated peptide phosphorylation, read-out: LCK_IC50
measuredQuantity: IC50 (nM)
Express it in nM; write the number only.

IN: Complete the entry with IC50 for CC(C)N1CCC(c2cc3cc(C(=O)c4cnn(-c5ccc(Oc6cccc(F)c6F)cc5)c4N)[nH]c3cc2F)CC1 [Example 4-2-004]
OUT: 2.3

IN: Complete the entry with IC50 for Cc1cc(Oc2cccc(F)c2F)ccc1-n1ncc(C(=O)c2cc3cc(NS(C)(=O)=O)c(F)cc3[nH]2)c1N [Example 4-2-098]
OUT: 2.5

IN: Complete the entry with IC50 for Cc1cc(-n2ncc(C(=O)c3cc4cc(C)c(N5C(=O)NC6(CC6)C5=O)cc4[nH]3)c2N)ccc1Oc1ccccc1F [Example 5-1-473]
OUT: 240

IN: Complete the entry with IC50 for Cc1cc2cc(C(=O)c3cnn(-c4ccc(Oc5ccccc5F)cc4C)c3N)[nH]c2cc1NS(=O)(=O)c1cccc(F)c1 [Example 5-1-550]
OUT: 72

IN: Complete the entry with IC50 for Cc1cc2cc(C(=O)c3cnn(-c4cnc(Oc5ccc(F)cc5)cc4C)c3N)[nH]c2cc1NS(=O)(=O)CCCF [Example 4-2-076]
OUT: 62

----------
target: human Src enzyme (Homo sapiens, UniProt P12931); construct: purchased Carna Biosciences, Inc. 08-173; test: Src enzyme inhibitory activity (time-resolved fluorometry, biotinylated peptide phosphorylation); type: biochemical; conditions: biotinylated peptide phosphorylation, read-out: SRC_IC50
Sequence (P12931 whole entry): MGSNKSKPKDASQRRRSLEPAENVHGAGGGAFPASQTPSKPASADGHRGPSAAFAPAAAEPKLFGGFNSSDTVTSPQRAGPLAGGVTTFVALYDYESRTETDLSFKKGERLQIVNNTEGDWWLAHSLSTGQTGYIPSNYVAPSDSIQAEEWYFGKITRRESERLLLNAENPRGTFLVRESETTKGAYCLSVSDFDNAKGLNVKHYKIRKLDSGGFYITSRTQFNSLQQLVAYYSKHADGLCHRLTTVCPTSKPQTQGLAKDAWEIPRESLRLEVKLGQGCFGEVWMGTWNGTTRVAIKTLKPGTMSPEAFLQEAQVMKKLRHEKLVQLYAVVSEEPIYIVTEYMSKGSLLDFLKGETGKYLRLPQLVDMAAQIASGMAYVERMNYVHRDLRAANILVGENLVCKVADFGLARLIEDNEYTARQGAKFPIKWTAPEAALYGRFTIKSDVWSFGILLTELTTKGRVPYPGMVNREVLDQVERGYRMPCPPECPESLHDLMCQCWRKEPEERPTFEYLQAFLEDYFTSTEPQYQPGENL
measuredQuantity: IC50 (µM)
Express it in µM; write the number only.

IN: Complete the entry with IC50 for Cc1cc2cc(C(=O)c3cnn(-c4cnc(Oc5c(F)cccc5F)cc4C)c3N)[nH]c2cc1N1C(=O)[C@@H]2CCCN2C1=O [Example 5-1-454]
OUT: 0.04

----------
biological target: human Src enzyme (Homo sapiens, UniProt P12931); construct: purchased Carna Biosciences, Inc. 08-173; experiment: Src enzyme inhibitory activity (time-resolved fluorometry, biotinylated peptide phosphorylation); assay type: biochemical; settings: biotinylated peptide phosphorylation, read-out: SRC_IC50
measuredQuantity: IC50 (nM)
Express it in nM; write the number only.

Some solved entries appear below for comparison.
molecule: Cc1cc(Oc2ccccc2F)ccc1-n1ncc(C(=O)c2cc3cc(OC(F)F)c(NS(=O)(=O)N4CCOCC4)cc3[nH]2)c1N [Example 4-22-001]
measuredTarget: human Src enzyme (Homo sapiens, UniProt P12931)
unitsLabel: nM
IC50: 90

molecule: Cc1cc2cc(C(=O)c3cnn(-c4c(C)cc(Oc5cccc(F)c5F)cc4F)c3N)[nH]c2cc1N1CCCS1(=O)=O [Example 4-2-115]
measuredTarget: human Src enzyme (Homo sapiens, UniProt P12931)
unitsLabel: nM
IC50: 63

molecule: Cc1cc(Oc2ccccc2F)ncc1-n1ncc(C(=O)c2cc3cc(N4CCOCC4)c(NS(=O)(=O)CCCF)cc3[nH]2)c1N [Example 4-24-016]
measuredTarget: human Src enzyme (Homo sapiens, UniProt P12931)
unitsLabel: nM
IC50: 78

molecule: Cc1cc(Oc2ccccc2Cl)cc(F)c1-n1ncc(C(=O)c2cc3cc(F)c(NS(C)(=O)=O)cc3[nH]2)c1N [Example 4-7-009]
measuredTarget: human Src enzyme (Homo sapiens, UniProt P12931)
unitsLabel: nM
IC50: 150

molecule: Cc1cc(Oc2ccccc2)cc(F)c1-n1ncc(C(=O)c2cc3cc(Cl)c(NS(C)(=O)=O)cc3[nH]2)c1N [Example 4-2-084]
measuredTarget: human Src enzyme (Homo sapiens, UniProt P12931)
unitsLabel: nM
IC50: 160

IN: # assay system human Src enzyme (Homo sapiens, UniProt P12931): give IC50 of Cc1cc2cc(C(=O)c3cnn(-c4ccc(Oc5ccccc5F)cc4C)c3N)[nH]c2cc1N1C(=O)NC(C)(C(F)(F)F)C1=O (stereo not drawn) [Example 5-1-435]
OUT: 120

----------
// reported IC50 for each item listed
Target: human Yes1 enzyme (Homo sapiens)
Construct: made in house
Sequence (P07947 whole entry): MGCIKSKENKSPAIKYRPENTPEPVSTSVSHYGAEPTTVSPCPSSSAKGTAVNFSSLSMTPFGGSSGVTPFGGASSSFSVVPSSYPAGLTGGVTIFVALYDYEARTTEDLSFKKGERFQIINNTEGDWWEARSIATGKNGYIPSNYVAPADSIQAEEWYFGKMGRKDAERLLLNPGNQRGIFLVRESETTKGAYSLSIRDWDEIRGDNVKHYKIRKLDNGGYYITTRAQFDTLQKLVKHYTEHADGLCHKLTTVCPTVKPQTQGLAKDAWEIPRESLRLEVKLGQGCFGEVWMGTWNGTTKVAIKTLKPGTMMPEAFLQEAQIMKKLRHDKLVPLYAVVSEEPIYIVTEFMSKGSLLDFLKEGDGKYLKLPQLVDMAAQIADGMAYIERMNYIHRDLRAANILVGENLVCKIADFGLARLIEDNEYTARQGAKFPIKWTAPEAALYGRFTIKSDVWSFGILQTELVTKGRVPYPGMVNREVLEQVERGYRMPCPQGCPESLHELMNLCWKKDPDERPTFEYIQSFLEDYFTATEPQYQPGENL
Assay: Yes1 enzyme inhibitory activity (time-resolved fluorometry, biotinylated peptide phosphorylation)
Assay type: biochemical
Settings: biotinylated peptide phosphorylation, read-out: YES_IC50
Method: 1. Yes1 Enzyme Inhibitory Activity Yes1 inhibitory activity was determined based on activity of inhibiting phosphorylation reaction of a biotinylated peptide (EGPWLEEEEEAYGWMDF) using a human Yes1 enzyme prepared using a baculovirus expression system. The phosphorylated biotinylated peptide was detected by time-resolved fluorometry using an anti-phosphorylated tyrosine antibody conjugated to europium cryptate, and streptavidin conjugated to XL665, an allophycocyanin derivative. […]
Express it in nM; write the number only.

querySmiles: Cc1cc(Oc2c(F)cccc2F)ncc1-n1ncc(C(=O)c2cc3cc(OC(F)F)c(C4CCN(C(=O)OC(C)(C)C)CC4)cc3[nH]2)c1N
measuredQuantity: IC50
endpointValue: 34

querySmiles: Cc1cc(Oc2c(F)cccc2F)ncc1-n1ncc(C(=O)c2cc3cc(OC(F)F)c(N4CCOCC4)cc3[nH]2)c1N
measuredQuantity: IC50
endpointValue: 6.3

IN: Complete the entry with IC50 for `Cc1cc(Oc2ccccc2F)ccc1-n1ncc(C(=O)c2cc3cc(F)c(N4CC5(CCOCC5)NS4(=O)=O)cc3[nH]2)c1N`
OUT: 0.98

IN: Complete the entry with IC50 for `Cc1cc(Oc2ccccc2F)ccc1-n1ncc(C(=O)c2cc3cc(OCC(F)F)c(NS(=O)(=O)c4cccc(C#N)c4)cc3[nH]2)c1N`
OUT: 3.4

----------
target: human Src enzyme (Homo sapiens, UniProt P12931); construct: purchased Carna Biosciences, Inc. 08-173; test: Src enzyme inhibitory activity (time-resolved fluorometry, biotinylated peptide phosphorylation); assay type: biochemical; details: biotinylated peptide phosphorylation, read-out: SRC_IC50
measuredQuantity: IC50
Respond with the figure and its unit, in that order.

IN: Complete the entry with IC50 for `Cc1cc(Oc2ccccc2F)ccc1-n1ncc(C(=O)c2cc3cc(F)c(N4C(=O)NC5(CCCCC5)C4=O)cc3[nH]2)c1N`
OUT: 150 nM

IN: Complete the entry with IC50 for `Cc1cc2cc(C(=O)c3cnn(-c4ccc(Oc5ccccc5F)cc4C)c3N)[nH]c2cc1N1C(=O)NC2(COC2)C1=O`
OUT: 22 nM

IN: Complete the entry with IC50 for `Cc1cc(Oc2ccccc2F)ccc1-n1ncc(C(=O)c2cc3cc(OCC(F)F)c(NS(C)(=O)=O)cc3[nH]2)c1N`
OUT: 22 nM

----------
molecular target: human Lck enzyme (Homo sapiens, UniProt P06239); construct: purchased Carna Biosciences, Inc. 08-170; experiment: Lck enzyme inhibitory activity (time-resolved fluorometry, biotinylated peptide phosphorylation); assay type: biochemical; details: read-out: LCK_IC50
measuredQuantity: pIC50
Note on units: pIC50 is unitless, being -log10 of a concentration expressed in mol/L.

Some solved entries appear below for comparison.
querySmiles: Cc1cc(Oc2c(F)cccc2F)ncc1-n1ncc(C(=O)c2cc3cc(OC(F)F)c(N4CCN(S(C)(=O)=O)CC4)cc3[nH]2)c1N
pIC50: 7.74
//
querySmiles: Cc1cc(Oc2ccccc2F)ccc1-n1ncc(C(=O)c2cc3cc(N4CCOCC4)c(NC4CCN(S(C)(=O)=O)CC4)cc3[nH]2)c1N
pIC50: 8.34

Turning now to a further compound:
IN: # assay system human Lck enzyme (Homo sapiens, UniProt P06239): give pIC50 of `Cc1cc(Oc2c(F)cccc2F)ncc1-n1ncc(C(=O)c2cc3cc(OCC(F)F)c(Br)cc3[nH]2)c1N`
OUT: 7.85
